Below is a list of entries, each paired with its recorded z-score value.
assay: Components of the Cytosolic LPS Sensing Pathway: Gene Identification via Genome-wide siRNA Screen; settings: RAW264.7 macrophages, IL-1a HTRF, actives lie on both sides, screened at 100 nM (by protocol), cells primed 5 h with Pam3CSK4 first;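 also: robust z of the log signal after scaling to non-targeting control siRNA wells of the plate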
Screen size: about 53,000 sequences; about 3,700 (7%) were called active. This is one part of a sample in which actives are shown more often than they occur.
attribute-measured: z-score

sequence | measured
GGGCUUCAGAAAAUCCAGGTT against Dclre1a | -0.447
GGAAGAGAUUUCUAAACUUTT against Mcoln2 | -1.93
GGUUCUCUAACAGAACUUUTT against Zc3h6 | 0.768
GGACCUGUUUGAUUUGGUGTT against Nf2 | 0.8
